test: photoluminescence quantum yield (fraction); solvent given as SMILES; settings: in CO
Label Met when photoluminescence quantum yield < 0.02; otherwise Not met.

sample_smiles=CC1(C)C(/C=C/C2=C(c3ccc(C(=O)O)cc3)C(=C/C=C3/N(CCCCS(=O)(=O)[O-])c4ccc5ccccc5c4C3(C)C)/CCC2)=[N+](CCCCS(=O)(=O)[O-])c2ccc3ccccc3c21 group="Not met"
sample_smiles=Cc1ccc(/C=C/c2nc3ccccc3s2)cc1 group=Met
sample_smiles=CN(C)CCCN1c2ccccc2CCc2ccccc21 group=Met
sample_smiles=CCN(CC)c1ccc(-c2c3c(n4ccc(C(C)=O)cc24)C(=O)N(CCCNC(=O)OC(C)(C)C)C3)cc1 group=Met
sample_smiles=CN(C)c1cc(C#N)c(N(C)C)c(C#N)c1 group="Not met"
sample_smiles=COc1cc(OC)c(C2=C3C(C)=CC(C)=[N+]3[B-](F)(F)n3c(C)cc(C)c32)c(OC)c1 group="Not met"
sample_smiles=COc1cccc(-c2nc(-c3ccccc3)c(-c3ccccc3)[nH]2)c1 group="Not met"
sample_smiles=CCCN1/C(=C/C=C(/C=C/C2=[N+](CCC)c3ccccc3C2(C)C)c2cc[n+](C)cc2)C(C)(C)c2ccccc21 group="Not met"
